Tested on: SARS-CoV-2
Test: Antiviral efficacy against SARS-CoV-2 (strain BavPat1) in Vero E6 cells assessed by inhibition of viral RNA replication measured by RT-PCR after 2 days
Assay type: functional, organism-based, Chlorocebus sabaeus
Settings: Severe acute respiratory syndrome coronavirus 2, Vero C1008, 48 h
Result Type: EC90 (µM)
Express the result in µM but write the number alone.

Would you please look over these solved cases?
>>> df
                         structure_notation  target_desc  assay_value
0  CCCCC[C@H](O)/C=C/[C@H]1[C@H](O)CC(=O)[C@@H]1CCCCCCC(=O)O   SARS-CoV-2         62.4
1      Clc1ccc(Cn2c(CN3CCCC3)nc3ccccc32)cc1   SARS-CoV-2         38.2
2       COc1ncnc(NS(=O)(=O)c2ccc(N)cc2)c1OC   SARS-CoV-2         45.1

Moving on to another compound below.
Query: Entry C[C@@H]1CCO[C@H]2Cn3cc(C(=O)NCc4ccc(F)cc4F)c(=O)c(O)c3C(=O)N12 has what EC90?
Result: 42.8

====

molecules and their reported selectivity ratio
Test: Selectivity index for antiviral vs cytotoxic effect in Vero E6 cells (CC50/EC50)
Type: toxicity, cell-based, Vero C1008
Settings: monkey, read-out: Selectivity index
Counter-ions that a name gives are not always drawn.

# example entries with known answers
Molecule	Assay Value
C[C@@H]1CCO[C@H]2Cn3cc(C(=O)NCc4ccc(F)cc4F)c(=O)c(O)c3C(=O)N12	> 1.8
C=C[C@H]1CN2CC[C@H]1C[C@@H]2[C@@H](O)c1ccnc2ccc(OC)cc12	> 7.8
COc1ncnc(NS(=O)(=O)c2ccc(N)cc2)c1OC	> 1.13

Query: Recorded selectivity ratio of CCN(CCO)CCCC(C)Nc1ccnc2cc(Cl)ccc12 (configuration not stated) [HYDROXYCHLOROQUINE SULFATE] , please.
Result: > 10

Query: What would you report for C=CCOc1ccccc1OCC(O)CNC(C)C (configuration not stated) [OXPRENOLOL HYDROCHLORIDE] ?
Result: > 2

Query: Can you handle CC[C@H]1OC(=O)[C@H](C)[C@@H](O[C@H]2C[C@@](C)(OC)[C@@H](O)[C@H](C)O2)[C@H](C)[C@@H](O[C@@H]2O[C@H](C)C[C@H](N(C)C)[C@H]2O)[C@](C)(O)C[C@@H](C)CN(C)[C@H](C)[C@@H](O)[C@]1(C)O next?
Result: > 19

Query: Also check OCCN1CCN(CCCN2c3ccccc3C=Cc3ccccc32)CC1 [OPIPRAMOL HYDROCHLORIDE]
Result: > 7.9

====

Test system: SARS-CoV-2
Test: Antiviral efficacy against SARS-CoV-2 (strain BavPat1) in Vero E6 cells assessed by inhibition of viral RNA replication measured by RT-PCR after 2 days
Format: functional, organism-based, Chlorocebus sabaeus
Conditions: Severe acute respiratory syndrome coronavirus 2, Vero C1008, 48 h
Where a name gives a salt, the structure may show the parent alone.
Catalogue of compounds with associated EC50
Please give a number only; it is taken to be in µM.

As a guide, the following entries are already answered.
Compound	Target Desc	EC50 (µM)
CCN(CCO)CCCC(C)Nc1ccnc2cc(Cl)ccc12 (stereo unspecified) [HYDROXYCHLOROQUINE SULFATE]	SARS-CoV-2	4.17
CC[C@H]1OC(=O)[C@H](C)[C@@H](O[C@H]2C[C@@](C)(OC)[C@@H](O)[C@H](C)O2)[C@H](C)[C@@H](O[C@@H]2O[C@H](C)C[C@H](N(C)C)[C@H]2O)[C@](C)(O)C[C@@H](C)CN(C)[C@H](C)[C@@H](O)[C@]1(C)O [AZITHROMYCIN]	SARS-CoV-2	2.12
CCCCC[C@H](O)/C=C/[C@H]1[C@H](O)CC(=O)[C@@H]1CCCCCCC(=O)O [ALPROSTADIL]	SARS-CoV-2	5.39
C[C@@H]1CCO[C@H]2Cn3cc(C(=O)NCc4ccc(F)cc4F)c(=O)c(O)c3C(=O)N12 [DOLUTEGRAVIR]	SARS-CoV-2	22
Clc1ccc(Cn2c(CN3CCCC3)nc3ccccc32)cc1	SARS-CoV-2	23.9

Query: Look up EC50 for this compound: COc1ccc2[nH]c([S+]([O-])Cc3ncc(C)c(OC)c3C)nc2c1 (stereo unspecified) [OMEPRAZOLE]
Result: 17.1

Query: Would you kindly repeat that for C=C[C@H]1CN2CC[C@H]1C[C@@H]2[C@@H](O)c1ccnc2ccc(OC)cc12 ?
Result: 5.11

Query: Next: CCOC(=O)c1c(CSc2ccccc2)n(C)c2cc(Br)c(O)c(CN(C)C)c12 [UMIFENOVIR]
Result: 10.7
